test-target: Cathepsin B from bovine spleen (Bos taurus)
assay-procedure: Assay for Cathepsin B activity / inhibition (Z-Lys-pNP substrate, absorbance 330 nm)
Format: biochemical
stated-conditions: Table 9, additional synthetic peptides; MGO-modified
property-label: Cathepsin B remaining activity (% of control)

Observe how each entry below is paired with its result.
{"substance": "Ac-LVK-OH (Ac-Leu-Val-Lys-OH) [synthetic peptide derived from MRJP3 (see Leu170)]", "test-target": "Cathepsin B from bovine spleen (Bos taurus)", "numeric-result": 80.84}
{"substance": "Ac-LLK-OH (Ac-Leu-Leu-Lys-OH) [synthetic peptide derived from MRJP1, 2, 4]", "test-target": "Cathepsin B from bovine spleen (Bos taurus)", "numeric-result": 147.60}
{"substance": "Ac-LIR-OH (Ac-Leu-Ile-Arg-OH) [synthetic peptide derived from MRJP2, 4 (see Leu408)]", "test-target": "Cathepsin B from bovine spleen (Bos taurus)", "numeric-result": 0.07}
{"substance": "Ac-LIR-NH2 (Ac-Leu-Ile-Arg-NH2) [synthetic peptide derived from MRJP2, 4 (see Leu408), amidated C-terminus]", "test-target": "Cathepsin B from bovine spleen (Bos taurus)", "numeric-result": 72.56}

[1] Ac-LLK-NH2 (Ac-Leu-Leu-Lys-NH2) [synthetic peptide derived from MRJP1, 2, 4, amidated C-terminus]
[2] Ac-LVK-NH2 (Ac-Leu-Val-Lys-NH2) [synthetic peptide derived from MRJP3 (see Leu170), amidated C-terminus]
Problem: Endpoint returns the identifier whose Cathepsin B remaining activity (% of control) is numerically larger, either 1 or 2 . Please indicate the selected item by its label.
Result: 1
(1: 136.90, 2: 80.03)

* * *

test-target: Cathepsin B from bovine spleen (Bos taurus)
assay-procedure: Assay for Cathepsin B activity / inhibition (Z-Lys-pNP substrate, absorbance 330 nm)
Type: biochemical
stated-conditions: Table 9, additional synthetic peptides; unmodified
property-label: Cathepsin B remaining activity (% of control)

Before answering, review these 2 worked examples.
{"substance": "Ac-LVK-NH2 (Ac-Leu-Val-Lys-NH2) [synthetic peptide derived from MRJP3 (see Leu170), amidated C-terminus]", "numeric-result": 92.71}
{"substance": "Ac-LLK-NH2 (Ac-Leu-Leu-Lys-NH2) [synthetic peptide derived from MRJP1, 2, 4, amidated C-terminus]", "numeric-result": 159.34}

[a] Ac-LLK-OH (Ac-Leu-Leu-Lys-OH) [synthetic peptide derived from MRJP1, 2, 4]
[b] Ac-LIR-NH2 (Ac-Leu-Ile-Arg-NH2) [synthetic peptide derived from MRJP2, 4 (see Leu408), amidated C-terminus]
Problem: Kindly identify which of a and b has the larger recorded Cathepsin B remaining activity (% of control) value. Give the label under which the chosen entry appears.
Result: a

* * *

test-target: Cathepsin B from bovine spleen (Bos taurus, UniProt P07688)
assay-procedure: Assay for Cathepsin B activity / inhibition (Z-Lys-pNP substrate, absorbance 330 nm)
Type: biochemical
stated-conditions: Table 6, MRJP1 derived synthetic peptides; MGO-modified
property-label: Cathepsin B remaining activity (% of control)

Solved entries:
{"substance": "H-MTR-OH (H-Met-Thr-Arg-OH) [MRJP1 derived synthetic peptide]", "test-target": "Cathepsin B from bovine spleen (Bos taurus, UniProt P07688)", "numeric-result": 104.39}
{"substance": "H-FTK-OH (H-Phe-Thr-Lys-OH) [MRJP1 derived synthetic peptide]", "test-target": "Cathepsin B from bovine spleen (Bos taurus, UniProt P07688)", "numeric-result": 76.59}
{"substance": "Ac-MQK-OH (Ac-Met-Gln-Lys-OH) [MRJP1 derived synthetic peptide]", "test-target": "Cathepsin B from bovine spleen (Bos taurus, UniProt P07688)", "numeric-result": 69.15}

[A] H-CDR-OH (H-Cys-Asp-Arg-OH) [MRJP1 derived synthetic peptide]
[B] Ac-FDR-OH (Ac-Phe-Asp-Arg-OH) [MRJP1 derived synthetic peptide]
Problem: Between A and B , which one shows the smaller Cathepsin B remaining activity (% of control) number? Refer to your chosen item by its label in the answer.
Result: B

[I] Ac-FTK-OH (Ac-Phe-Thr-Lys-OH) [MRJP1 derived synthetic peptide]
[II] H-FDR-OH (H-Phe-Asp-Arg-OH) [MRJP1 derived synthetic peptide]
Problem: Endpoint returns whichever of I and II has the numerically higher Cathepsin B remaining activity (% of control). Your answer should be the label of the entry you select.
Result: I

[P] Ac-CDR-OH (Ac-Cys-Asp-Arg-OH) [MRJP1 derived synthetic peptide]
[Q] Ac-MTR-OH (Ac-Met-Thr-Arg-OH) [MRJP1 derived synthetic peptide]
Problem: Thinking about recorded Cathepsin B remaining activity (% of control) values, which is higher, P or Q ? Provide the label of your selected option as the answer.
Result: Q

* * *

test-target: Cathepsin B from bovine spleen (Bos taurus, UniProt P07688)
assay-procedure: Assay for Cathepsin B activity / inhibition (Z-Lys-pNP substrate, absorbance 330 nm)
Assay type: biochemical
stated-conditions: Table 8, MRJP5 derived synthetic peptides; MGO-modified
property-label: Cathepsin B remaining activity (% of control)

{"substance": "Ac-IDR-OH (Ac-Ile-Asp-Arg-OH) [MRJP5 derived synthetic peptide]", "test-target": "Cathepsin B from bovine spleen (Bos taurus, UniProt P07688)", "numeric-result": 81.75}
{"substance": "H-IDR-OH (H-Ile-Asp-Arg-OH) [MRJP5 derived synthetic peptide]", "test-target": "Cathepsin B from bovine spleen (Bos taurus, UniProt P07688)", "numeric-result": 85.60}
{"substance": "Ac-LQK-OH (Ac-Leu-Gln-Lys-OH) [MRJP5 derived synthetic peptide]", "test-target": "Cathepsin B from bovine spleen (Bos taurus, UniProt P07688)", "numeric-result": 90.15}
{"substance": "H-VNR-OH (H-Val-Asn-Arg-OH) [MRJP5 derived synthetic peptide]", "test-target": "Cathepsin B from bovine spleen (Bos taurus, UniProt P07688)", "numeric-result": 82.63}
{"substance": "H-MDR-OH (H-Met-Asp-Arg-OH) [MRJP5 derived synthetic peptide]", "test-target": "Cathepsin B from bovine spleen (Bos taurus, UniProt P07688)", "numeric-result": 74.46}
{"substance": "H-MDK-OH (H-Met-Asp-Lys-OH) [MRJP5 derived synthetic peptide]", "test-target": "Cathepsin B from bovine spleen (Bos taurus, UniProt P07688)", "numeric-result": 70.62}
{"substance": "Ac-TNR-OH (Ac-Thr-Asn-Arg-OH) [MRJP5 derived synthetic peptide]", "test-target": "Cathepsin B from bovine spleen (Bos taurus, UniProt P07688)", "numeric-result": 91.72}

* * *

test-target: Cathepsin B from bovine spleen (Bos taurus)
assay-procedure: Assay for Cathepsin B activity / inhibition (Z-Lys-pNP substrate, absorbance 330 nm)
Assay type: biochemical
stated-conditions: Table 6, MRJP1 derived synthetic peptides; unmodified
property-label: Cathepsin B remaining activity (% of control)

{"substance": "Ac-MTR-OH (Ac-Met-Thr-Arg-OH) [MRJP1 derived synthetic peptide]", "numeric-result": 126.30}
{"substance": "H-MTR-OH (H-Met-Thr-Arg-OH) [MRJP1 derived synthetic peptide]", "numeric-result": 143.48}
{"substance": "H-MQK-OH (H-Met-Gln-Lys-OH) [MRJP1 derived synthetic peptide]", "numeric-result": 127.00}

[P] Ac-FDR-OH (Ac-Phe-Asp-Arg-OH) [MRJP1 derived synthetic peptide]
[Q] H-FTK-OH (H-Phe-Thr-Lys-OH) [MRJP1 derived synthetic peptide]
Problem: Would you mind telling me which has the lower recorded Cathepsin B remaining activity (% of control) between P and Q ? Bench note: the answer is the label of the chosen record.
Result: P

* * *

test-target: Cathepsin B from bovine spleen (Bos taurus)
assay-procedure: Assay for Cathepsin B activity / inhibition (Z-Lys-pNP substrate, absorbance 330 nm)
Type: biochemical
stated-conditions: Table 8, MRJP5 derived synthetic peptides; unmodified
property-label: Cathepsin B remaining activity (% of control)

{"substance": "Ac-MHR-OH (Ac-Met-His-Arg-OH) [MRJP5 derived synthetic peptide]", "numeric-result": 101.26}
{"substance": "H-LQK-OH (H-Leu-Gln-Lys-OH) [MRJP5 derived synthetic peptide]", "numeric-result": 102.47}
{"substance": "Ac-MDK-OH (Ac-Met-Asp-Lys-OH) [MRJP5 derived synthetic peptide]", "numeric-result": 109.67}
{"substance": "H-MDK-OH (H-Met-Asp-Lys-OH) [MRJP5 derived synthetic peptide]", "numeric-result": 104.25}
{"substance": "H-IDR-OH (H-Ile-Asp-Arg-OH) [MRJP5 derived synthetic peptide]", "numeric-result": 98.02}
{"substance": "Ac-TDK-OH (Ac-Thr-Asp-Lys-OH) [MRJP5 derived synthetic peptide]", "numeric-result": 100.51}
{"substance": "H-VNR-OH (H-Val-Asn-Arg-OH) [MRJP5 derived synthetic peptide]", "numeric-result": 97.75}
{"substance": "H-MHR-OH (H-Met-His-Arg-OH) [MRJP5 derived synthetic peptide]", "numeric-result": 96.77}
{"substance": "Ac-VNR-OH (Ac-Val-Asn-Arg-OH) [MRJP5 derived synthetic peptide]", "numeric-result": 99.83}
{"substance": "H-MDR-OH (H-Met-Asp-Arg-OH) [MRJP5 derived synthetic peptide]", "numeric-result": 101.73}
{"substance": "Ac-IDR-OH (Ac-Ile-Asp-Arg-OH) [MRJP5 derived synthetic peptide]", "numeric-result": 93.46}
{"substance": "H-TNR-OH (H-Thr-Asn-Arg-OH) [MRJP5 derived synthetic peptide]", "numeric-result": 102.61}
{"substance": "Ac-TNR-OH (Ac-Thr-Asn-Arg-OH) [MRJP5 derived synthetic peptide]", "numeric-result": 96.48}
{"substance": "H-TDK-OH (H-Thr-Asp-Lys-OH) [MRJP5 derived synthetic peptide]", "numeric-result": 103.18}
{"substance": "Ac-MDR-OH (Ac-Met-Asp-Arg-OH) [MRJP5 derived synthetic peptide]", "numeric-result": 107.34}
{"substance": "Ac-LQK-OH (Ac-Leu-Gln-Lys-OH) [MRJP5 derived synthetic peptide]", "numeric-result": 102.05}
